Source: ChEMBL document CHEMBL4052619

- system: Trypanothione reductase (Leishmania infantum)
- Sequence (A4HSF7 whole entry): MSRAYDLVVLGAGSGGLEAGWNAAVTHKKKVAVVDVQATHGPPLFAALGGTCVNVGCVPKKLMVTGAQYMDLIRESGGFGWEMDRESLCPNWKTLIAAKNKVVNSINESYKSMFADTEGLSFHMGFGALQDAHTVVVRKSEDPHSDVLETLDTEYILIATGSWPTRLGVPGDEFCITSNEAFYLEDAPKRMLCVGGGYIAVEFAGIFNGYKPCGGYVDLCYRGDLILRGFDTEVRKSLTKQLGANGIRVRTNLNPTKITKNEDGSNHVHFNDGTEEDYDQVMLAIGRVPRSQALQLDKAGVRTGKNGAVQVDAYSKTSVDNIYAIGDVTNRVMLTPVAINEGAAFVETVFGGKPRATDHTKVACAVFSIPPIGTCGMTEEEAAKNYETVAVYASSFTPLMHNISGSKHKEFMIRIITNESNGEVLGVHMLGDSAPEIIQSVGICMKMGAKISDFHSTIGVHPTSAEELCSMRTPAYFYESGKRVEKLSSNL
- protocol_text: Inhibition of recombinant Leishmania infantum TryR preincubated for 10 mins followed by T[S]2 substrate addition and measured after 1 hr in presence of NADPH
Square brackets hold non-standard residues; d marks the D form. Peptide text beside a SMILES is read from it. ξ: configuration not given here. ξNle = CCCCC(N)C(=O)O
measurement_kind: IC50

Solved cases (2 shown):
{"compound": "CCCCC(NC(=O)[C@H](CCCCN)NC(=O)C(CCCC)NC(=O)[C@H](CO)NC(=O)[C@@H](NC(=O)CNC(=O)[C@H](CCCCN)NC(=O)[C@H](CO)NC(=O)[C@H](CCC(N)=O)NC(=O)[C@@H](NC(=O)[C@H](CCC(=O)O)NC(=O)[C@H](CCCCN)NC(=O)[C@@H]1CCCN1C(C)=O)[C@@H](C)CC)[C@@H](C)CC)C(N)=O (stereo partly drawn) (Ac-PKEIQSKGIS[ξNle]K[ξNle]-NH2)", "measurement_kind": "IC50", "recorded_value": "> 75 µM"}
{"compound": "CCCCC(NC(=O)[C@H](CCCCN)NC(=O)C(CCCC)NC(=O)[C@H](CO)NC(=O)[C@@H](NC(=O)[C@H](CCCCN)NC(=O)[C@@H](NC(=O)[C@H](CO)NC(=O)[C@H](CCC(N)=O)NC(=O)[C@H](CCC(=O)O)NC(=O)[C@@H](NC(=O)[C@H](CCCCN)NC(=O)[C@@H]1CCCN1C(C)=O)[C@@H](C)CC)C(C)C)[C@@H](C)CC)C(N)=O (stereo partly drawn) (Ac-PKIEQSVKIS[ξNle]K[ξNle]-NH2)", "measurement_kind": "IC50", "recorded_value": "> 75 µM"}

Query compound follows.
Request: GET /values?readout=IC50&system=Trypanothione reductase (Leishmania infantum)&item= CCCCC(NC(=O)[C@H](CCCCN)NC(=O)C(CCCC)NC(=O)[C@H](CO)NC(=O)[C@@H](NC(=O)[C@@H]1CCCCNC(=O)CC[C@H](NC(=O)[C@@H](NC(=O)[C@H](CCCCN)NC(=O)[C@@H]2CCCN2C(C)=O)[C@@H](C)CC)C(=O)N[C@@H](CCC(N)=O)C(=O)NC(CO)C(=O)N[C@@H](C(C)C)C(=O)N1)[C@@H](C)CC)C(N)=O (single isomer, unassigned)
Result: 5.3 µM
